Experiment: reduction of polyQ htt aggregates in cells – imaging, exon1htt(103Q)mCFP cells, high-content imaging, primary screen (AID 483);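 further: compound exposure lasted 3 days before fixation; percent of the per-plate median nuclei count of sample wells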
Settings: exon1htt(103Q)mCFP cell line, aggregate imaging, at 2 µM; measured here: cell count, toxicity
RECORDED_METRIC: nuclei count (%)

MOLECULE	ASSAY_VALUE
CC1(C)Cc2c(sc3ncnc(N)c23)CO1	114
Cc1ccc(S(=O)(=O)N(CC(=O)N2CCC(C(N)=O)CC2)c2cccc(C(F)(F)F)c2)cc1	112
COc1ccc(CCNC(=O)C2CCN(Cc3nc(-c4cccc(Cl)c4)oc3C)CC2)cc1OC	94.3
CCCCCCNS(=O)(=O)c1ccc(Cl)s1	102
CC(=O)OC[C@H]1O[C@@H](n2ncc(=O)[nH]c2=O)[C@H](OC(C)=O)[C@@H]1OC(C)=O	77.3
COc1ccc2nc(C)cc(N3CCOCC3)c2c1	104
